- procedure.details: in vivo
- test.parameters: CD-1, mouse, po, 10 mg/kg

>  <compound.structure>
C[C@@H]1COCCN1c1cc(N=[S@@](C)(=O)C2CC2)nc(-c2ccnc(N)c2)n1

>  <bioavailability (%)>
77

$$$$

----------
Entries annotated with measured CLint scaled at 0.75 h, 1 µM
- procedure.details: in vitro
- test.parameters: human, human liver microsomes

>  <compound.structure>
COc1cc(-c2nc(N=[S@@](C)(=O)C3CC3)cc(N3CCOC[C@H]3C)n2)cc(N)n1

>  <CLint scaled at 0.75 h, 1 µM (mL/min/kg)>
7.1

$$$$
>  <compound.structure>
C[C@@H]1COCCN1c1cc(N=[S@@](C)(=O)C2CC2)nc(-c2ccnc(N)c2)n1

>  <CLint scaled at 0.75 h, 1 µM (mL/min/kg)>
2.3

$$$$
>  <compound.structure>
COc1cc(-c2nc(N=[S@](C)(=O)C3COC3)cc(N3CCOC[C@H]3C)n2)cc(N)n1

>  <CLint scaled at 0.75 h, 1 µM (mL/min/kg)>
2.4

$$$$
>  <compound.structure>
COc1cc(-c2nc(N=[S@@](C)(=O)C3COC3)cc(N3CCOC[C@H]3C)n2)cc(N)n1

>  <CLint scaled at 0.75 h, 1 µM (mL/min/kg)>
13

$$$$

----------
- procedure.details: in vitro
- test.parameters: cynomolgus monkey, hepatocytes
- Description: Intrinsic clearance in cynomolgus monkey hepatocytes

>  <compound.structure>
C[C@@H]1COCCN1c1cc(N=[S@@](C)(=O)C2CC2)nc(-c2ccnc(N)c2)n1

>  <CLint scaled / mL/min/kg>
10

$$$$

----------
- procedure.details: physchem
- test.parameters: Fasted State Simulated Intestinal Fluid
- Description: Thermodynamic solubility of the compound in Fasted State Simulated Intestinal Fluid

>  <compound.structure>
C[C@@H]1COCCN1c1cc(N=[S@@](C)(=O)C2CC2)nc(-c2ccnc(N)c2)n1

>  <unit.of.measure>
µg/mL

>  <solubility thermodynamic>
1600

$$$$

----------
- procedure.details: in vivo
- test.parameters: Sprague-Dawley, rat, po, 10 mg/kg

>  <compound.structure>
C[C@@H]1COCCN1c1cc(N=[S@@](C)(=O)C2CC2)nc(-c2ccnc(N)c2)n1

>  <unit.of.measure>
µM·h

>  <AUC(0-t)>
3.78

$$$$

----------
- System: LoVo
- procedure.details: cells
- test.parameters: Homo sapiens
- Description: Antiproliferative activity against human LoVo cells assessed as inhibition of cell growth incubated for 7 days by CellTiter-Glo 2.0 assay
property.label: EC50 (nM)

>  <compound.structure>
C[C@@H]1COCCN1c1cc(N=[S@@](C)(=O)C2CC2)nc(-c2ccnc(N)c2)n1

>  <property.label>
EC50

>  <numeric.value>
1150

$$$$

----------
- Tested on: NCI-H23
- procedure.details: cells
- test.parameters: Homo sapiens
- Description: Antiproliferative activity against human NCI-H23 cells assessed as inhibition of cell growth incubated for 7 days by CellTiter-Glo 2.0 assay

>  <compound.structure>
C[C@@H]1COCCN1c1cc(N=[S@@](C)(=O)C2CC2)nc(-c2ccnc(N)c2)n1

>  <EC50, nM>
140

$$$$

----------
- procedure.details: in vivo
- test.parameters: Sprague-Dawley, rat, po, 10 mg/kg

>  <compound.structure>
C[C@@H]1COCCN1c1cc(N=[S@@](C)(=O)C2CC2)nc(-c2ccnc(N)c2)n1

>  <Tmax>
11.4 min

$$$$

----------
- system.tested: Cytochrome P450 3A4 (Homo sapiens, UniProt P08684)
- Sequence (P08684 whole entry): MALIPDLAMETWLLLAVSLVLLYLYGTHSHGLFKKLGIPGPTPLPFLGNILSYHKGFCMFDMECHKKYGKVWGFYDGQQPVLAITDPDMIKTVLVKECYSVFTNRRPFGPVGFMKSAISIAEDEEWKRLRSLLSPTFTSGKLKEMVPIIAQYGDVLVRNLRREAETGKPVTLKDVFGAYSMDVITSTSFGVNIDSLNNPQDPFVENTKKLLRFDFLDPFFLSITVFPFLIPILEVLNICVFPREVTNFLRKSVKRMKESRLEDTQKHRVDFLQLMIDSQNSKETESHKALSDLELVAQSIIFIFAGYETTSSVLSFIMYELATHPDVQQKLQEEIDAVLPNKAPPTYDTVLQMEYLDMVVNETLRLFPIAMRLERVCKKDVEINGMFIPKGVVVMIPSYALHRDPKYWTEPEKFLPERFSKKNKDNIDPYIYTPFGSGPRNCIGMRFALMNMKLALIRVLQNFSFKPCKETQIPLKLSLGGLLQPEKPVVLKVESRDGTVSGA
pIC50: −log10 of the molar value.
property.label: pIC50

>  <compound.structure>
C[C@@H]1COCCN1c1cc(N=[S@@](C)(=O)C2CC2)nc(-c2ccnc(N)c2)n1

>  <result>
< 5.00

$$$$
